EC50 for assorted molecules
biological target: α-7 nicotinic acetylcholine receptor channel expressed in HEK 293 cells (Rattus norvegicus); construct: expressed in transfected cells; assay: Ca2+-sensitive fluorescence-based FLIPR assay, α7 nicotinic ACh receptor channel function (agonist); type: cell-based; conditions: FLIPR α7 activity rating (EC50, nM), Table 1; HEK 293 cells, agonist Ca2+ flux

Suppose we examine the molecule Brc1cccc2cnc(NC3=NC[C@@]4(CN5CCC4CC5)O3)cc12 [Example 294] ; what EC50 value has been reported?
< 100 nM

Item Clc1ccc(NC2=NC[C@@]3(CN4CCC3CC4)O2)nn1 [Example 254] has what recorded EC50?
100 to 1000 nM

For the molecule COc1cccc(-c2cc(NC3=NC[C@@]4(CN5CCC4CC5)O3)ncn2)c1 [Example 238] , what EC50 is on record?
< 100 nM

Query: EC50; subject: c1ccc(-c2cccc(NC3=NC[C@@]4(CN5CCC4CC5)O3)n2)cc1 [Example 30]
100 to 1000 nM

What does the data say about its EC50? Entry: Cc1nnc(NC2=NC[C@@]3(CN4CCC3CC4)O2)o1 [Example 258]
1000 to 100000 nM

What EC50 value was documented for this molecule, FC(F)(F)c1ccc2[nH]nc(NC3=NC[C@@]4(CN5CCC4CC5)O3)c2c1 [Example 163] ?
< 100 nM

Recorded EC50 of c1nc(NC2=NC[C@@]3(CN4CCC3CC4)O2)cc(OC2CCCC2)n1 [Example 231] , please.
100 to 1000 nM

Which value of EC50 has been reported for Fc1cccc2[nH]nc(NC3=NC[C@@]4(CN5CCC4CC5)O3)c12 [Example 158] in the records?
100 to 1000 nM

Record request: EC50 value, item Clc1cnc(NC2=NC[C@@]3(CN4CCC3CC4)O2)c(Cl)c1 [Example 267]
< 100 nM

What measured EC50 goes with c1cncc(-c2cnc(NC3=NC[C@@]4(CN5CCC4CC5)O3)cn2)c1 [Example 36] ?
100 to 1000 nM

I am curious: what EC50 value has been reported for Cc1sc2ncnc(NC3=NC[C@@]4(CN5CCC4CC5)O3)c2c1C [Example 167] ?
1000 to 100000 nM

What does the data say about its EC50? Entry: Brc1cc(NC2=NC[C@@]3(CN4CCC3CC4)O2)ccn1 [Example 154]
1000 to 100000 nM

I am curious: what EC50 value has been reported for COc1cncc(NC2=NCC3(CN4CCC3CC4)O2)n1 (racemic) [Example 118] ?
1000 to 100000 nM

====

target: α-7 nicotinic acetylcholine receptor channel expressed in HEK 293 cells (Rattus norvegicus); construct: expressed in transfected cells; experiment: Ca2+-sensitive fluorescence-based FLIPR assay, α7 nicotinic ACh receptor channel function (agonist); assay type: cell-based; conditions: FLIPR α7 activity rating (EC50, nM), Table 1; HEK 293 cells, agonist Ca2+ flux
Property Name: EC50

>>> print(df.to_string())
                                   compound             result
0  COc1ccc(-c2cc(NC3=NC[C@@]4(CN5CCC4CC5)O3)n[nH]2)cc1  1000 to 100000 nM
1  CC(C)Oc1cc(NC2=NC[C@@]3(CN4CCC3CC4)O2)ncn1     100 to 1000 nM
2  COc1ccc2c(NC3=NC[C@@]4(CN5CCC4CC5)O3)n[nH]c2c1           < 100 nM
3  Cc1cccc2sc(NC3=NCC4(CN5CCC4CC5)O3)nc12 (stereo not drawn) [Example 6]     100 to 1000 nM
4  COc1ccc(-c2nc(NC3=NCC4(CN5CCC4CC5)O3)sc2C)cc1 (racemic)     100 to 1000 nM

I'd like to know its EC50. The compound in question is Clc1cccc(NC2=NC[C@@]3(CN4CCC3CC4)O2)n1
100 to 1000 nM

State the recorded EC50 for this entry: O=C(c1ccc2nc(NC3=NCC4(CN5CCC4CC5)O3)sc2c1)N1CCCC1 (stereo not drawn)
1000 to 100000 nM

Looking for the measured EC50 of Oc1ccc2nc(NC3=NCC4(CN5CCC4CC5)O3)sc2c1 (single isomer, unassigned) [Example 13a] , can you help?
100 to 1000 nM

Fill in: EC50 of FC(F)(F)c1cnc(NC2=NC[C@@]3(CN4CCC3CC4)O2)cn1 is ___
100 to 1000 nM

====

target: α-7 nicotinic acetylcholine receptor channel expressed in HEK 293 cells (Rattus norvegicus, UniProt Q05941); construct: expressed in transfected cells; test: Ca2+-sensitive fluorescence-based FLIPR assay, α7 nicotinic ACh receptor channel function (agonist); assay type: cell-based; details: FLIPR α7 activity rating (EC50, nM), Table 1; HEK 293 cells, agonist Ca2+ flux
Sequence (Q05941 23-502): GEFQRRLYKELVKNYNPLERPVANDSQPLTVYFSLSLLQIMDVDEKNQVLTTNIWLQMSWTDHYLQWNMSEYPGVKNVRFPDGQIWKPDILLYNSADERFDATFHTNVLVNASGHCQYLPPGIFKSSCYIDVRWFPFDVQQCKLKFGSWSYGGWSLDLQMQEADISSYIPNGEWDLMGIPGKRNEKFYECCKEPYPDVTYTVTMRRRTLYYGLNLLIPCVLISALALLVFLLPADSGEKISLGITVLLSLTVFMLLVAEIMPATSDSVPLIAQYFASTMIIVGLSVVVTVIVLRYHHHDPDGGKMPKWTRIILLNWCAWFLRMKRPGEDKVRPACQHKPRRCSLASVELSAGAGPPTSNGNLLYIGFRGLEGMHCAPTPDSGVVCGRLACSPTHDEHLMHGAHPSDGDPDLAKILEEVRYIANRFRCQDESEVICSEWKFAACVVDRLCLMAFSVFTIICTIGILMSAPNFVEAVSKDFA
Property Name: EC50

>>> df
                                   molecule             result
0  Fc1ccc2nc(NC3=NC[C@@]4(CN5CCC4CC5)O3)sc2c1 [Example 200]           < 100 nM
1  c1ccc2sc(NC3=NCC4(CN5CCC4CC5)O3)nc2c1 (single isomer, unassigned) [Example 1a]  1000 to 100000 nM
2  Clc1cc(Cl)c2cnc(NC3=NC[C@@]4(CN5CCC4CC5)O3)cc2c1 [Example 279]     100 to 1000 nM
3  COc1ccc(-c2cnc(NC3=NC[C@@]4(CN5CCC4CC5)O3)cn2)cn1 [Example 37]  1000 to 100000 nM
4  Fc1ccc(-c2nnc(NC3=NCC4(CN5CCC4CC5)O3)s2)cc1 (centres unmarked) [Example 59]  1000 to 100000 nM

# get_value(readout='EC50', item= CCc1ccc2nc(NC3=NCC4(CN5CCC4CC5)O3)sc2c1 (centres unmarked) [Example 91] )
100 to 1000 nM

I'd like to know its EC50. The molecule in question is Clc1cc(Cl)nc(NC2=NC[C@@]3(CN4CCC3CC4)O2)c1 [Example 286]
100 to 1000 nM

Value lookup for EC50; key = COc1ccc2nc(NC3=NCC4(CN5CCC4CC5)O3)sc2c1 (single isomer, unassigned) [Example 5b]
< 100 nM

====

target: α-7 nicotinic acetylcholine receptor channel expressed in HEK 293 cells (Rattus norvegicus, UniProt Q05941); construct: expressed in transfected cells; assay: Ca2+-sensitive fluorescence-based FLIPR assay, α7 nicotinic ACh receptor channel function (agonist); format: cell-based; conditions: FLIPR α7 activity rating (EC50, nM), Table 1; HEK 293 cells, agonist Ca2+ flux
# key: entry, value: EC50

>>> print(df.to_string())
                                   compound             result
0  FC(F)(F)c1ccc2nc(NC3=NCC4(CN5CCC4CC5)O3)sc2c1 (stereo not drawn)     100 to 1000 nM
1  COc1cccc2sc(NC3=NCC4(CN5CCC4CC5)O3)nc12 (stereo not drawn)  1000 to 100000 nM
2  COc1ccc2c(c1)nc(NC1=NC[C@@]3(CN4CCC3CC4)O1)n2C  1000 to 100000 nM

// switching to the query compound
Any idea what its EC50 is? The compound is CC(C)c1csc(NC2=NCC3(CN4CCC3CC4)O2)n1 (racemic) [Example 15]
100 to 1000 nM

====

Property Name: melting point

Example cases with answers are listed next.
>>> df
                                   compound         result
0  c1ccc2nc(NC3=NC[C@@]4(CN5CCC4CC5)O3)cnc2c1  212 to 215 °C
1  FC(F)Oc1ccc2nc(NC3=NC[C@@]4(CN5CCC4CC5)O3)sc2c1  223 to 225 °C

Which melting point is reported for this compound? c1ccc2[nH]c(NC3=NCC4(CN5CCC4CC5)O3)nc2c1 (centres unmarked)
255 °C (dec.)

Which melting point is reported for this compound? FC(F)Oc1cc(NC2=NC[C@@]3(CN4CCC3CC4)O2)ncn1
185 to 190 °C

Can you look up the measured melting point of FC(F)COc1cc(NC2=NC[C@@]3(CN4CCC3CC4)O2)ncn1 for me?
83 to 88 °C

# lookup: melting point of c1ccc(-c2cnc(NC3=NCC4(CN5CCC4CC5)O3)s2)cc1 (centres unmarked)
187 to 189 °C

melting point for CSc1cnc(NC2=NC[C@@]3(CN4CCC3CC4)O2)cn1 ?
155 to 160 °C

// melting point lookup, key: COc1cccc(-c2cc(NC3=NC[C@@]4(CN5CCC4CC5)O3)ncn2)c1
80 to 85 °C

====

target: α-7 nicotinic acetylcholine receptor channel expressed in HEK 293 cells (Rattus norvegicus); construct: expressed in transfected cells; test: Ca2+-sensitive fluorescence-based FLIPR assay, α7 nicotinic ACh receptor channel function (agonist); type: cell-based; conditions: FLIPR α7 activity rating (EC50, nM), Table Ib; HEK 293 cells, agonist Ca2+ flux
Property Name: EC50

Check out these entries, answers already filled in.
>>> print(df.to_string())
                                   compound          result
0  O=[N+]([O-])c1ccc(-c2ccnc(NC3=NC[C@@]4(CN5CCC4CC5)O3)c2)cn1 [Example 305]        < 100 nM
1  Fc1ccc2cnc(NC3=NC[C@@]4(CN5CCC4CC5)O3)nc2c1 [Example 321]        < 100 nM
2  c1cn(-c2cc(NC3=NC[C@@]4(CN5CCC4CC5)O3)ncn2)cn1 [Example 347]        < 100 nM
3  Cc1nc(NC2=NC[C@@]3(CN4CCC3CC4)O2)cc2c(F)cc(F)cc12 [Example 328]  100 to 1000 nM
4  Cc1cc(NC2=NC[C@@]3(CN4CCC3CC4)O2)ncc1F [Example 307]        < 100 nM
5  c1cncc(-c2ccnc(NC3=NC[C@@]4(CN5CCC4CC5)O3)c2)c1 [Example 296]        < 100 nM
6  Cn1cc(-c2ccnc(NC3=NC[C@@]4(CN5CCC4CC5)O3)c2)cn1 [Example 303]        < 100 nM
7  Clc1ccc2cc(NC3=NC[C@@]4(CN5CCC4CC5)O3)ncc2c1 [Example 338B]        < 100 nM

Please find the next compound below.
Which EC50 is reported for this compound? c1ccc(-c2ccnc(NC3=NC[C@@]4(CN5CCC4CC5)O3)c2)cc1 [Example 302]
< 100 nM

Reference source: patent US8309577B2
